FYI, the data here is from patent US10538487B2.

Measured pIC50 of individual entries
- Test target: NLRP3 inflammasome (Mus musculus, UniProt Q8R4B8)
- Sequence (Q8R4B8 whole entry): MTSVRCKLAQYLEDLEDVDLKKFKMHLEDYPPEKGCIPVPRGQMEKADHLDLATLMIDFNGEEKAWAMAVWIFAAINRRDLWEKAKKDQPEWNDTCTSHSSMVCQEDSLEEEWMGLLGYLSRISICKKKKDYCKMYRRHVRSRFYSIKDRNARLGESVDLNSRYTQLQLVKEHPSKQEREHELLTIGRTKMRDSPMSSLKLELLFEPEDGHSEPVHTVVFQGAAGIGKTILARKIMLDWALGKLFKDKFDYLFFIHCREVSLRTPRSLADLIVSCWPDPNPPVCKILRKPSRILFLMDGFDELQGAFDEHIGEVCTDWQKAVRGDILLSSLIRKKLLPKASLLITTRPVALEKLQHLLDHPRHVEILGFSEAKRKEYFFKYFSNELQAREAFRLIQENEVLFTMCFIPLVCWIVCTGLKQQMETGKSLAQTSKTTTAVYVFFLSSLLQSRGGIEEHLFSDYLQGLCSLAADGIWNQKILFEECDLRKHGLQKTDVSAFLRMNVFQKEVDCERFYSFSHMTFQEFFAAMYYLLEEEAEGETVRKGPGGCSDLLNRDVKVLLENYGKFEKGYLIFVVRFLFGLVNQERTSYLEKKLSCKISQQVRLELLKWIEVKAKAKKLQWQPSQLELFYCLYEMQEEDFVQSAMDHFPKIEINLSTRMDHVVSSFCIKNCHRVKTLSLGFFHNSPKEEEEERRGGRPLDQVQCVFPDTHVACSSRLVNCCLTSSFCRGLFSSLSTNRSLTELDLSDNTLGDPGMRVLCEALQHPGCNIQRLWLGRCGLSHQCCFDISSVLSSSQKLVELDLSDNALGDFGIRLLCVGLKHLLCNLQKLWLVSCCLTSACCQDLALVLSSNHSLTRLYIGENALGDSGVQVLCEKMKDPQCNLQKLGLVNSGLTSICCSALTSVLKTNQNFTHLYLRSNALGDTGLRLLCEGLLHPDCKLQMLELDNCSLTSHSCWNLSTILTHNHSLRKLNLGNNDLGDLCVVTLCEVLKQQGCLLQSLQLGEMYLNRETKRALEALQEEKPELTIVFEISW
- Assay notes: Inhibition of IL-1β release, NLRP3 inflammasome activation assay in BMDM
- Assay type: cell-based
- Cond: inhibition of IL-1β release, class symbols, read-out: Avg. IL-1β IC50 Murine BMDM
pIC50: −log10 of the molar value.

Study these solved cases before continuing.
>  <Smi>
CC(C)c1cc(Cl)cc(C(C)C)c1NC(=O)NS(=O)(=O)c1cc2ccccc2s1

>  <pIC50>
> 6.00

$$$$
>  <Smi>
O=C(Nc1c2c(cc3c1CCC3)CCC2)NS(=O)(=O)c1cccc(C(F)(F)F)c1

>  <pIC50>
> 6.00

$$$$
>  <Smi>
COc1ccc2cc(S(=O)(=O)NC(=O)Nc3c(C(C)C)cc(Cl)cc3C(C)C)ccc2c1

>  <pIC50>
> 7.00

$$$$

Give its pIC50 value. Item: O=C(Nc1c2c(cc3c1CCC3)CCC2)NS(=O)(=O)c1cc(C(=O)O)co1
> 5.00

Given CC(C)(O)c1coc(S(=O)(=O)NC(=O)Nc2c3c(cc4c2OCC4)OCC3)c1 , state its recorded pIC50.
> 6.00

Which pIC50 is listed for CC(C)c1cc(Cl)cc(C(C)C)c1NC(=O)NS(=O)(=O)c1cccc2nccnc12 ?
> 7.00

// query pIC50 value for entry CCc1noc2ncc(S(=O)(=O)NC(=O)Nc3c(C(C)C)cc(Cl)cc3C(C)C)cc12
> 5.00

Look up pIC50 for this compound: O=C(CCCC[C@@H]1SC[C@@H]2NC(=O)N[C@@H]21)NCCCn1cc(CCC(=O)Nc2cccc(S(=O)(=O)NC(=O)Nc3c4c(cc5c3CCC5)CCC4)c2)nn1
> 5.00

Quick one: pIC50 for COc1ccc(Cl)cc1C(=O)NCCc1ccc(S(=O)(=O)NC(=O)Nc2c3c(cc4c2CCC4)CCC3)cc1 ?
> 6.00

What value of pIC50 has been reported for the following compound? O=C(Nc1c2c(cc3c1CCC3)CCC2)NS(=O)(=O)c1nnc[nH]1
> 7.00

So what's the measured pIC50 for this one? CC(C)(O)c1coc(S(=O)(=O)NC(=O)Nc2c(C3CC3)cc(Cl)cc2C2CC2)c1
> 7.00

----------
Entries and their pIC50
- Test target: NLRP3 inflammasome (Homo sapiens)
- Assay notes: Inhibition of IL-1β release, NLRP3 inflammasome activation assay in HMDM
- Assay type: cell-based
- Cond: inhibition of IL-1β release, class symbols, read-out: Avg. IL-1β IC50 HMDM
pIC50: −log10 of the molar value.

Solved entries (count: 6):
>  <Compound>
CC(C)c1cccc(C(C)C)c1NC(=O)NS(=O)(=O)c1cc(C(F)(F)F)n(C)n1

>  <pIC50>
> 5.00

$$$$
>  <Compound>
CC(C)n1nc(S(=O)(=O)NC(=O)Nc2c3c(cc4c2CCC4)CCC3)cc1C(F)(F)F

>  <pIC50>
> 6.00

$$$$
>  <Compound>
O=C(Nc1c2c(cc3c1CCC3)CCC2)NS(=O)(=O)C1CCOC1 (stereo not drawn)

>  <pIC50>
> 5.00

$$$$
>  <Compound>
Cc1oc(S(=O)(=O)NC(=O)Nc2c(C(C)C)cccc2C(C)C)cc1C(C)(C)O

>  <pIC50>
> 7.00

$$$$
>  <Compound>
[2H]C([2H])([2H])C(O)(c1cc(S(=O)(=O)NC(=O)Nc2c3c(c(Br)c4c2OCC4)CCC3)oc1C)C([2H])([2H])[2H]

>  <pIC50>
> 7.00

$$$$
>  <Compound>
CC(C)n1ccc(S(=O)(=O)NC(=O)Nc2c(C3CC3)cc(Cl)cc2C2CC2)n1

>  <pIC50>
> 6.00

$$$$

Give the measured pIC50 of O=C(Nc1c2c(cc3c1CCC3)CCC2)NS(=O)(=O)c1cccc(C(=O)O)c1 .
> 7.00

For Cc1ccc(S(=O)(=O)NC(=O)Nc2c3c(cc4c2CCC4)CCC3)o1 , what is its reported pIC50?
> 7.00

----------
Entries and their measured pIC50 follow.
- Test target: NLRP3 inflammasome (Homo sapiens, UniProt Q96P20)
- Sequence (Q96P20 whole entry): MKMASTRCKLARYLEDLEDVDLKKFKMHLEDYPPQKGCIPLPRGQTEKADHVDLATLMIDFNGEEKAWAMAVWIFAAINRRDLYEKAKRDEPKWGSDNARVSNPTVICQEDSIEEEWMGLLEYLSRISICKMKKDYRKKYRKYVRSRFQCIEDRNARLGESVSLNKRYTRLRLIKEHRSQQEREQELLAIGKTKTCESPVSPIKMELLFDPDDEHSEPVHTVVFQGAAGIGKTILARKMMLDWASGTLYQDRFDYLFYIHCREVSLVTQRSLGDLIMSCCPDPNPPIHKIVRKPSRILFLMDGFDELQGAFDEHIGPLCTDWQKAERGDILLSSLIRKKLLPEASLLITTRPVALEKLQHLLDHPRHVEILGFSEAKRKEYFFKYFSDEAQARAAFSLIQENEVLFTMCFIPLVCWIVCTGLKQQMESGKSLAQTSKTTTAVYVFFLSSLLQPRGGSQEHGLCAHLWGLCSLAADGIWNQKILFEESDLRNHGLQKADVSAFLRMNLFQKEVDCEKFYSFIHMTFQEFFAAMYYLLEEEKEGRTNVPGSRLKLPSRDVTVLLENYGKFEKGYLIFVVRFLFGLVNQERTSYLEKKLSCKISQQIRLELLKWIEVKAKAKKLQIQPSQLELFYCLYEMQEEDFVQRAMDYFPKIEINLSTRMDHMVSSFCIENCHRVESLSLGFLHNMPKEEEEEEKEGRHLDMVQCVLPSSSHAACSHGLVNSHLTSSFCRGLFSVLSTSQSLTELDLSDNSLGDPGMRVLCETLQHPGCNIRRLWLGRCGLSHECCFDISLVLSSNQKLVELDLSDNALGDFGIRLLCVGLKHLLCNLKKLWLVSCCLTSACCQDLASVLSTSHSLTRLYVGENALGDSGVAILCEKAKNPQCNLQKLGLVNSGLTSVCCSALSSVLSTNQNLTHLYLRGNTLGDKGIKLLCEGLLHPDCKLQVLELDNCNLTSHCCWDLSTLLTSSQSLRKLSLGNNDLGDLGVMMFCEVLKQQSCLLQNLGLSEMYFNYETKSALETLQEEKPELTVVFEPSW
- Assay notes: Inhibition of IL-1β release, NLRP3 inflammasome activation assay in HMDM
- Assay type: cell-based
- Cond: inhibition of IL-1β release, class symbols, read-out: Avg. IL-1β IC50 HMDM
pIC50: −log10 of the molar value.

Example cases with answers are listed next.
>  <Smi>
COc1cc(NC(=O)NS(=O)(=O)c2cc(C(C)(C)O)co2)c2ncccc2c1

>  <Property name>
pIC50

>  <Measured value>
> 5.00

$$$$
>  <Smi>
CC(C)c1cc(Cl)cc(C(C)C)c1NC(=O)NS(=O)(=O)c1cnc2ccccc2c1

>  <Property name>
pIC50

>  <Measured value>
> 7.00

$$$$
>  <Smi>
O=C(Nc1c2c(cc3c1CCC3)CCC2)NS(=O)(=O)c1cccc(OC(F)(F)F)c1

>  <Property name>
pIC50

>  <Measured value>
> 6.00

$$$$
>  <Smi>
O=C(Nc1c2c(cc3c1CCC3)CCC2)NS(=O)(=O)c1ccn(C2CC2)n1

>  <Property name>
pIC50

>  <Measured value>
> 7.00

$$$$

# pIC50 lookup, item O=C(Nc1c2c(cc3c1CCC3)CCC2)NS(=O)(=O)c1cccc2cccnc12
> 6.00

----------
- Test target: UniProt:Q96P20
- Assay notes: Inhibition of IL-1β release, NLRP3 inflammasome activation assay in HMDM
- Type: cell-based
- Cond: inhibition of IL-1β release, class symbols, read-out: Avg. IL-1β IC50 HMDM
pIC50: −log10 of the molar value.
Measured pIC50, listed per entry.

>  <Smi>
O=C(Nc1c2c(cc3c1CCC3)CCC2)NS(=O)(=O)C1CCCCC1

>  <Test target>
UniProt:Q96P20

>  <pIC50>
> 5.00

$$$$
>  <Smi>
CC(C)c1cc(Cl)cc(C(C)C)c1NC(=O)NS(=O)(=O)c1cc(C(C)(C)O)co1

>  <Test target>
UniProt:Q96P20

>  <pIC50>
> 7.00

$$$$
>  <Smi>
O=C(Nc1c2c(cc3c1CCC3)CCC2)NS(=O)(=O)c1cccc(C(F)(F)F)c1

>  <Test target>
UniProt:Q96P20

>  <pIC50>
> 7.00

$$$$
>  <Smi>
O=C(Nc1c2c(cc3c1CCC3)CCC2)NS(=O)(=O)c1cnc2c(c1)CCC2

>  <Test target>
UniProt:Q96P20

>  <pIC50>
> 7.00

$$$$
>  <Smi>
CC(C)(C)c1cc(C(C)(C)C)nc(NC(=O)NS(=O)(=O)c2cc(C(C)(C)O)co2)n1

>  <Test target>
UniProt:Q96P20

>  <pIC50>
> 4.30

$$$$

Which pIC50 is reported with UniProt:Q96P20 for this entry: CC(C)(O)c1coc(S(=O)(=O)NC(=O)Nc2c3c(c(Cl)c4c2CCC4)CCC3)c1 ?
> 7.00

API: value(readout=pIC50, system=UniProt:Q96P20) for record CC(C)c1cc(Cl)cc(C(C)C)c1NC(=O)NS(=O)(=O)c1cc2ccccc2o1
> 7.00
